The following sequences are shown together with reported recombinant UMI read abundance (log10) values.
Assay: recombinant UMI read abundance after kanamycin selection (control-corrected) (log10(CPM+1)); higher = more efficient recombination; extreme values may be limits of the assay; sequences stand for … in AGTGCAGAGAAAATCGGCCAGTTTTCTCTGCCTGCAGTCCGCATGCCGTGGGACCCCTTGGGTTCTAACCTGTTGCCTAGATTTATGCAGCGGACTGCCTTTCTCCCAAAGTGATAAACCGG…AGGTTGGTTTCACT; site = the 11-nt donor;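 also: IS621 bridge recombinase in Escherichia coli cells against a fixed T5 target plasmid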
Please give only the number in your answer, with no unit.

Example entries begin here.
INSERT INTO measurements (input_sequence, measured_property, recorded_value) VALUES
  ('TCACCGCCATGGACCGGTTTTCCCGGTAATCCGTATTTGGG (site TCACCGCCTCC)', 'recombinant UMI read abundance (log10)', 0.0301),
  ('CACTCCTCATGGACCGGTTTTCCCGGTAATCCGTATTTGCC (site CAATCCTCTGG)', 'recombinant UMI read abundance (log10)', 0.883),
  ('CAAACGCCATGGACCGGTTTTCCCGGTAATCCGTATTTGTG (site CAATCGCCTCA)', 'recombinant UMI read abundance (log10)', 0.0256),
  ('AATGCAACATGGACCGGTTTTCCCGGTAATCCGTATTTGCT (site AATGCAACTAG)', 'recombinant UMI read abundance (log10)', 0.00461),
  ('CCGTTACCATGGACCGGTTTTCCCGGTAATCCGTATTTGTG (site CCGTTAGCTCA)', 'recombinant UMI read abundance (log10)', 0.0116);

Now turn to the next sequence.
The sequence listed as GGAGCTTCATGGACCGGTTTTCCCGGTAATCCGTATTTGGC (site GGAGCTTCTGC) has a reported recombinant UMI read abundance (log10) of 1.5

Where do the numbers come from? From the supplement of paper PMC11208160.
